Hello, the source for this data is patent US20230212549A1, in case you need it.

# target-under-test: T1, fibroblast activation protein (FAP) on FAP-expressing human WI-38 fibroblasts (human, UniProt Q12884 1-760)
# T1 construct: also called human FAP
# protocol-text: competitive FACS, WI-38 cells, vs Cy5 tracer m3; A = pIC50 >8.0
Numbered stars: 1 amine (or outer) side, 2 acyl side, 3 side chain; on linkers, the order of the positions; unused ones are H or OH. Bridge positions count the residues as written; N and C are the ends. Square brackets hold non-standard residues; d marks the D form. * marks the point of attachment. mXylylene = c1cc(C[*:1])cc(C[*:2])c1; 2Lut = 2,6-lutidylidene; Hexanoyl = CCCCCC(=O)*
result-type: pIC50 Category (FACS)

Reported pIC50 Category (FACS) for Hexanoyl-CPPTQFCD-NH2 (linker 1-7 via 2Lut, also called 3BP-3518) [Hex-[Cys(2Lut)-Pro-Pro-Thr-Gln-Phe-Cys]-Asp-NH2] : what is it? > 8 pIC50

Reported pIC50 Category (FACS) for Ac-CPPTEFCDHFRD-NH2 (linker 1-7 via mXylylene; SMILES CC(=O)N[C@H]1CSCc2cccc(c2)CSC[C@@H](C(=O)N[C@@H](CC(=O)O)C(=O)N[C@@H](Cc2c[nH]cn2)C(=O)N[C@@H](Cc2ccccc2)C(=O)N[C@@H](CCCNC(=N)N)C(=O)N[C@@H](CC(=O)O)C(N)=O)NC(=O)[C@H](Cc2ccccc2)NC(=O)[C@H](CCC(=O)O)NC(=O)[C@H]([C@@H](C)O)NC(=O)[C@@H]2CCCN2C(=O)[C@@H]2CCCN2C1=O, also called 3BP-3202) [Ac-[Cys(3MeBn)-Pro-Pro-Thr-Glu-Phe-Cys]-Asp-His-Phe-Arg-Asp-NH2] : what is it? > 8 pIC50

Reported pIC50 Category (FACS) for H-[dM]CPPTEFCDHFRD-NH2 (linker 2-8 via mXylylene; SMILES CSCC[C@@H](N)C(=O)N[C@H]1CSCc2cccc(c2)CSC[C@@H](C(=O)N[C@@H](CC(=O)O)C(=O)N[C@@H](Cc2c[nH]cn2)C(=O)N[C@@H](Cc2ccccc2)C(=O)N[C@@H](CCCNC(=N)N)C(=O)N[C@@H](CC(=O)O)C(N)=O)NC(=O)[C@H](Cc2ccccc2)NC(=O)[C@H](CCC(=O)O)NC(=O)[C@H]([C@@H](C)O)NC(=O)[C@@H]2CCCN2C(=O)[C@@H]2CCCN2C1=O, also called 3BP-2976) [H-met-[Cys(3MeBn)-Pro-Pro-Thr-Glu-Phe-Cys]-Asp-His-Phe-Arg-Asp-NH2] : what is it? > 8 pIC50
